System: Mus musculus
Test: Percent reduction in plasma triglyceride level was evaluated in mice at a dose of 200 mg/kg/day p.o. for 9 days
Type: functional
Details: route oral
Quick list: Reduction per entry.
experimentalEndpoint: Reduction (%)

compound | measurement
Cc1c(C)c2c(c(C)c1O)C(CN(C)CCOc1ccc(/C=C3\SC(=O)NC3=O)cc1)C(C)(C)O2 (stereo not drawn) | 71
CCN(CCOc1ccc(/C=C2\SC(=O)NC2=O)cc1)CC1(C)CCc2c(C)c(O)c(C)c(C)c2O1 (stereo not drawn) | 76
Cc1c(C)c2c(c(C)c1O)C(COc1ccc(CC3SC(=O)NC3=O)cc1)C(C)(C)O2 (stereo not drawn) | 40
Cc1c(C)c2c(c(C)c1O)CCC(C)(COc1ccc(CC3SC(=O)NC3=O)cc1)O2 (stereo not drawn) [TROGLITAZONE] | 50
CC(=O)O.Cc1c(C)c2c(c(C)c1O)CCC(C)(CN(C)CCOc1ccc(/C=C3\SC(=O)NC3=O)cc1)O2 (stereo not drawn) | 31
Cc1c(C)c2c(c(C)c1O)CCC(C)(CNCCOc1ccc(/C=C3\SC(=O)NC3=O)cc1)O2 (stereo not drawn) | 29
CS(=O)(=O)O.Cc1c(C)c2c(c(C)c1O)CCC(C)(CN(C)CCOc1ccc(/C=C3\SC(=O)NC3=O)cc1)O2 (stereo not drawn) | 70
Cc1c(C)c2c(c(C)c1O)CCC(C)(CN(C)CCOc1ccc(/C=C3\SC(=O)NC3=O)cc1)O2.O=C(O)/C=C\C(=O)O (stereo not drawn) | 60
Cc1c(C)c2c(c(C)c1O)C(CN(C)CCOc1ccc(/C=C3\SC(=O)NC3=O)cc1)C(C)(C)O2.O=C(O)/C=C\C(=O)O (stereo not drawn) | 33
Cc1c(C)c2c(c(C)c1OCc1ccccc1)CCC(C)(CN(C)CCOc1ccc(/C=C3\SC(=O)NC3=O)cc1)O2 (stereo not drawn) | 32
Cc1c(C)c2c(c(C)c1O)CCC(C)(CN(C)CCOc1ccc(/C=C3\SC(=O)NC3=O)cc1)O2 (stereo not drawn) | 70
Cc1c(C)c2c(c(C)c1O)C(CN(C)CCOc1ccc(CC3SC(=O)NC3=O)cc1)C(C)(C)O2 (stereo not drawn) | 33
Cc1c(C)c2c(c(C)c1O)CCC(C)(CN(C)CCOc1ccc(/C=C3\SC(=O)NC3=O)cc1)O2.Cl (stereo not drawn) | 30
